- Tested on: Calu-3
- EXPERIMENT: cell viability relative to DMSO; higher = less toxic
- TEST CONTEXT: 72 h; 10000 nM
For each entry below, report its cell viability value.
Give bare numbers, in %.

Look at each compound and report its cell viability.
1. CCC(CC)n1ccc2c(C(=O)NCc3c(C)cc(C)[nH]c3=O)cc(C#N)cc21
2. Cc1c(Cc2ccc3ccccc3n2)c2cc(F)ccc2n1CC(=O)O
3. C[C@H]1C[C@H]2[C@@H]3CCC4=CC(=O)C=C[C@]4(C)[C@@]3(Cl)[C@@H](O)C[C@]2(C)[C@@]1(O)C(=O)CO
4. O=C(Nc1ccc(CN2CCOCC2)cc1)c1ccc(-c2cccc(Cl)c2)o1
5. CN1CCc2c(c3ccccc3n2Cc2ccccc2)C1 [mebhydrolin]
6. NC[C@H]1O[C@H](O[C@H]2[C@H](O)[C@@H](O[C@H]3O[C@H](CO)[C@@H](O)[C@H](N)[C@H]3O)[C@H](N)C[C@@H]2N)[C@H](N)[C@@H](O)[C@@H]1O
7. CCCCCCCCCCCCC[N+](C)(C)Cc1ccccc1
8. CCn1c2ccccc2c2cc(CNCc3ccccc3OC)ccc21

1. 102
2. 111
3. 91.5
4. 91
5. 104
6. 97.3
7. 37.3
8. 87.9

###

Please go through the items and note down their cell viability.
- System: HepG2
- EXPERIMENT: cell viability relative to DMSO; higher = less toxic
- TEST CONTEXT: 72 h; 10000 nM
Give bare numbers, in %.

Below: 8 compounds and their reported cell viability.
>  <COMPOUND>
CSc1ccccc1Nc1nc(N2CCNCC2)nc2c(NCC3CC3)ncnc12 [KHK-IN-1]

>  <REPORTED>
0

$$$$
>  <COMPOUND>
NC(=O)CC[C@H](NC(=O)Cc1ccccc1)C(=O)O [phenylacetylglutamine]

>  <REPORTED>
98.5

$$$$
>  <COMPOUND>
CCC1(c2ccccc2)C(=O)NCNC1=O [primidone]

>  <REPORTED>
96.3

$$$$
>  <COMPOUND>
CCCCCN(CCCOC)C(=O)[C@@H](CCC(=O)O)NC(=O)c1ccc(Cl)c(Cl)c1 [dexloxiglumide]

>  <REPORTED>
108

$$$$
>  <COMPOUND>
CO[C@]12C[C@@H](COC(=O)c3cncc(Br)c3)CN(C)[C@@H]1Cc1cn(C)c3cccc2c13 [nicergoline]

>  <REPORTED>
98.2

$$$$
>  <COMPOUND>
O=C(O)c1ccc(NC(=O)[C@H](Cc2ccc(O)cc2)NC(=O)c2ccccc2)cc1 [bentiromide]

>  <REPORTED>
102

$$$$
>  <COMPOUND>
C[C@@H](CN1CCC(n2c(=O)[nH]c3cc(Cl)ccc32)CC1)NC(=O)c1ccc2ccccc2c1

>  <REPORTED>
82.9

$$$$
>  <COMPOUND>
Cc1cc(N2CCN([C@@H]3CN[C@H](C(=O)N4CCSC4)C3)CC2)n(-c2ccccc2)n1 [teneligliptin]

>  <REPORTED>
94.7

$$$$

Batch: cell viability for all items listed.
1. C/C=C(/C(=C/C)c1ccc(O)cc1)c1ccc(O)cc1 [dienestrol]
2. N#Cc1c(N(CC(=O)O)CC(=O)O)sc(C(=O)O)c1CC(=O)O [Strontium Ranelate]
3. CNCCCC1(c2ccccc2)OC(C)(C)c2ccccc21 (stereo unspecified) [talopram]

[95.3, 108, 106]
